- Organism: Rattus norvegicus
- TEST_DESCRIPTION: The compound was tested for inducing [3H]dopamine release from striatal slices at 10 uM nicotine
- Assay type: functional
Recorded Activity by entry
REPORTED_ENDPOINT: Activity (%)

                                   compound  value
0                Cc1cc(/C=C2\CN3CCC2CC3)on1     68
1  Cc1cc(/C=C2/CN3CCC2C3)on1 (centres undefined)     46
2                      CN1CCC[C@H]1c1cccnc1    180
3                   Cc1cc([C@@H]2CCCN2C)on1     66

* * *

- Tested on: Mus musculus
- TEST_DESCRIPTION: Compound was tested in vivo for exploratory locomotor activity in mice after peroral administration
- Type: functional
- CONDITION_PARAMETERS: po
REPORTED_ENDPOINT: ED50 (mg/kg)

                                   compound  experimental_system  reported_endpoint  unit_tag  sign  value
0                   Cc1cc([C@@H]2CCCN2C)on1         Mus musculus               ED50     mg/kg     =     72
1                Cc1cc(/C=C2\CN3CCC2CC3)on1         Mus musculus               ED50     mg/kg     =    2.4
2                      CN1CCC[C@H]1c1cccnc1         Mus musculus               ED50     mg/kg     >      9
3  Cc1cc(/C=C2\CN3CCC2C3)on1 (centres undefined)         Mus musculus               ED50     mg/kg     =      2

* * *

- EXPERIMENTAL_SYSTEM: Neuronal acetylcholine receptor; alpha3/beta2 (Homo sapiens, UniProt P17787+P32297)
- Sequence (P17787 whole entry): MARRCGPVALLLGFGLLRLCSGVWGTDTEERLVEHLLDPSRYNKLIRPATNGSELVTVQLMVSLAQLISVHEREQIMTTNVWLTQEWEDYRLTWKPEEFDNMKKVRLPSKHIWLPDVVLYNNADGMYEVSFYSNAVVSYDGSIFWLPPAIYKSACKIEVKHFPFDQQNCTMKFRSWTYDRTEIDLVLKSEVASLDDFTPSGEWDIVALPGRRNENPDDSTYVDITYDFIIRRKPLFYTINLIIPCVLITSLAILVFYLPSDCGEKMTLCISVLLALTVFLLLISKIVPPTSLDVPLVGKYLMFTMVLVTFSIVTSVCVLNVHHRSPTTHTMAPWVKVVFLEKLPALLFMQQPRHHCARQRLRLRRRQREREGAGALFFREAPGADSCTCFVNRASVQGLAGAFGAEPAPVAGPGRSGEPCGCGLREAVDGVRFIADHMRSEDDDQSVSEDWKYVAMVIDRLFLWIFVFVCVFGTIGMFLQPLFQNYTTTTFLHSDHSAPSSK
- Sequence (P32297 whole entry): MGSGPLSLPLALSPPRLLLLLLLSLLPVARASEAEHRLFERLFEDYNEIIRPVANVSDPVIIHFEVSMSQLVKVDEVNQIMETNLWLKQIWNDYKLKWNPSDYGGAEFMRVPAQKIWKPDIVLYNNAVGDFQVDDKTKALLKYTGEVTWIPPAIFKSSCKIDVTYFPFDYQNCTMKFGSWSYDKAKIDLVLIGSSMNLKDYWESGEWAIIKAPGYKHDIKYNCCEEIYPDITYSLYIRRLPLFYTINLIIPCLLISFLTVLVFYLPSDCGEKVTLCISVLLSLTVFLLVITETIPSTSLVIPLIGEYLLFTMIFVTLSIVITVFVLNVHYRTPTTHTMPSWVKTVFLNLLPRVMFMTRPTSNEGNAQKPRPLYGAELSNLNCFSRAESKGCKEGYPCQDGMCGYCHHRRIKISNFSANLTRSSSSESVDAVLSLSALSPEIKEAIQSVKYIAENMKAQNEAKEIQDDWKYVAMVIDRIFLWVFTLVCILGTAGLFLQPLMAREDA
- TEST_DESCRIPTION: Inhibitory concentration required for in vitro binding affinity to Nicotinic acetylcholine receptor alpha3-beta2 expressed on cell line sf 9 by using [3H]-MCC
- Set-up: species or system Rattus norvegicus
pIC50: −log10 of the molar value.
Would you mind labelling by pIC50? At or over 7 is t, under is f.

                                   compound  group_label
0  Cc1cc(/C=C2/CN3CCC2C3)on1 (stereo unspecified)            t
1                Cc1cc(/C=C2/CN3CCC2CC3)on1            f
2  Cc1cc(/C=C2\CN3CCCC2C3)on1 (stereo unspecified)            f
3                Cc1cc(/C=C2\CN3CCC2CC3)on1            t

* * *

- EXPERIMENTAL_SYSTEM: Muscarinic acetylcholine receptor
- TEST_DESCRIPTION: Inhibitory concentration required for in vitro binding affinity to cholinergic central muscarinic receptor on rat brain cortex by using [3H]OXO-M
Some compounds, each annotated with its measured IC50.
REPORTED_ENDPOINT: IC50 (nM)

In [3]: df
Out[3]:
                                   compound  reported_endpoint  unit_tag  value
0                Cc1cc(/C=C2\CN3CCC2CC3)on1               IC50        nM   1000
1  Cc1cc(C=C2CN3CCCC2C3)on1 (stereo unspecified)               IC50        nM   1700
2  Cc1cc(/C=C2\CN3CCCC2C3)on1 (stereo unspecified)               IC50        nM    950
3                Cc1cc(/C=C2/CN3CCC2CC3)on1               IC50        nM   1500
4  Cc1cc(/C=C2\CN3CCC2C3)on1 (stereo unspecified)               IC50        nM   1200
5  Cc1cc(/C=C2/CN3CCC2C3)on1 (stereo unspecified)               IC50        nM   2800

* * *

- EXPERIMENTAL_SYSTEM: Neuronal acetylcholine receptor; alpha3/beta2 (Homo sapiens, UniProt P17787+P32297)
- TEST_DESCRIPTION: Inhibitory concentration required for in vitro binding affinity to Nicotinic acetylcholine receptor alpha3-beta2 expressed on cell line Sf 9 by using [3H]MCC
- Set-up: species or system Rattus norvegicus
REPORTED_ENDPOINT: IC50 (nM)

>>> print(df.to_string())
                                   molecule  value
0  Cc1cc(/C=C2\CN3CCC2C3)on1 (stereo unspecified)     15

* * *

Documented IC50 across a set of compounds
- EXPERIMENTAL_SYSTEM: Neuronal acetylcholine receptor
- TEST_DESCRIPTION: Inhibitory concentration required for in vitro binding affinity to cholinergic central Nicotinic acetylcholine receptor on rat brain cortex by using [3H]MCC
REPORTED_ENDPOINT: IC50 (nM)

                                   compound              experimental_system  reported_endpoint  value
0  Cc1cc(/C=C2\CN3CCCC2C3)on1 (stereo not given)  Neuronal acetylcholine receptor               IC50    170
1                Cc1cc(/C=C2\CN3CCC2CC3)on1  Neuronal acetylcholine receptor               IC50    3.4
2  Cc1cc(/C=C2\CN3CCC2C3)on1 (stereo not given)  Neuronal acetylcholine receptor               IC50     23
3  Cc1cc(/C=C2/CN3CCC2C3)on1 (stereo not given)  Neuronal acetylcholine receptor               IC50     26
4  Cc1cc(C=C2CN3CCCC2C3)on1 (stereo not given)  Neuronal acetylcholine receptor               IC50     85

* * *

- Organism: Xenopus sp.
- TEST_DESCRIPTION: Compound was tested for inducing stimulation of current response in Xenopus oocytes (alpha4-beta2) at 1 uM
- Assay type: functional, frog
REPORTED_ENDPOINT: Response (%)

                                   molecule  value
0         Cc1cc([C@@H]2CCCN2C)on1 [ABT-418]     24
1           CN1CCC[C@H]1c1cccnc1 [NICOTINE]    100
2                Cc1cc(/C=C2\CN3CCC2CC3)on1    300
3  Cc1cc(/C=C2\CN3CCC2C3)on1 (centres undefined)    171
